Target: Dimeric Monkey Ang-2FD conjugated to human IgG1 (monkey (Macca fascicularis))
Sequence (chain, as listed by the source limits assumed): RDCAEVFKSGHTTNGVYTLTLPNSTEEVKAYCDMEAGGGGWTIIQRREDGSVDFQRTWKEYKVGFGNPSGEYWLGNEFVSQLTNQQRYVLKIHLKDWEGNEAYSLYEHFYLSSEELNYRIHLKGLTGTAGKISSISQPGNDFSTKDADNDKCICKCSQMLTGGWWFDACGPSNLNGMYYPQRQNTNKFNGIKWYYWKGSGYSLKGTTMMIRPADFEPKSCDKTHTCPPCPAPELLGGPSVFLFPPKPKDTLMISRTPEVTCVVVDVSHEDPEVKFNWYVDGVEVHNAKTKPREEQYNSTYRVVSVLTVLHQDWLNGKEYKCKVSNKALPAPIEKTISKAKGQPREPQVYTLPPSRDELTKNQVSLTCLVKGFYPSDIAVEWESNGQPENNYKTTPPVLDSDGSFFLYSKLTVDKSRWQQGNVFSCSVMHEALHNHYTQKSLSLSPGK
Assay: SPR, human IgG1 antibody captured
resultType: T1/2 (h)
Provide the reading as a plain figure in h.

{"columns": ["binder", "endpointUnit", "T1/2"],
 "data": [
  ["H1H693P (antibody, human IgG1, V domains shown) VH: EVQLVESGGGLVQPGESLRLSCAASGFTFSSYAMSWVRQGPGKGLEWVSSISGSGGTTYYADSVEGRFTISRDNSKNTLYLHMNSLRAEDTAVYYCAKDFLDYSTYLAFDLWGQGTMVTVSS VL: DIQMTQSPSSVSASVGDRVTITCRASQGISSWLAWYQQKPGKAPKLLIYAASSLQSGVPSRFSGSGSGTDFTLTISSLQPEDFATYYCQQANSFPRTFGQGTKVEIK", "h", 0.293]
]}

[ask] # input binder: H1H730N (antibody, V domains shown) VH: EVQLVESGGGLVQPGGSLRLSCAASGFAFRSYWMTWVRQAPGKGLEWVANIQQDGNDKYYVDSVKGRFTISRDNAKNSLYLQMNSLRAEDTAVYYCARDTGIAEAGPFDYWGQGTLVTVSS VL: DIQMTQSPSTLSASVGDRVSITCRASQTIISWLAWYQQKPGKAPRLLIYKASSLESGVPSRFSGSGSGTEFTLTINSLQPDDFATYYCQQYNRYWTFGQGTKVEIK ; wanted: its T1/2
[reply] 1.45

[ask] # input binder: H1H728N (antibody, V domains shown) VH: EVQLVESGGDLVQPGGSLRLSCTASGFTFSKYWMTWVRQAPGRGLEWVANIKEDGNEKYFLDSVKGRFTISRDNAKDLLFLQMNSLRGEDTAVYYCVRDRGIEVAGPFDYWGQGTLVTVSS VL: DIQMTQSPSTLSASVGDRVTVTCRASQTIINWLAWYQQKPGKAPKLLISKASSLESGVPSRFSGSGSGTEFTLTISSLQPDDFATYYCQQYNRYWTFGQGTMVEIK ; wanted: its T1/2
[reply] 1.28
